# system under test: Cytochrome P450 2C9 (Homo sapiens)
# test protocol: Cytochrome panel assay with activity outcomes
# applied conditions: recombinant CYP, pro-luciferin dealkylation, luminescence, p450-cyp2c9; series mostly up to 57.1 µM
The campaign covered roughly 16,000 compounds. About 4,000 (25%) were called active. Another 26% or so got no clear call; they are omitted. Calls follow the shape of the dose curve; as a rule, active = well fitted curve in the direction sought with a large enough effect; inconclusive = small, poorly fitted or top-dose-only effect, or effect the other way; inactive = no such curve, though single readings can be large or run the other way. Not all results are given here.
Possible outcomes: active, inactive

• CCNc1ncc2nc(-c3ccc(OC)cc3)c(=O)n(CCOC)c2n1 = inactive
• COc1ccccc1N1CCN(CCCCN2C(=O)CCC2=O)CC1 = active
• Cc1cccn2c(=O)c3cc(C(=O)N4COCC4(C)C)n(C)c3nc12 = inactive
• CC(C)NC(=O)N1CC[C@@]2(CCCN(C(=O)c3cccn3C)C2)C1 = inactive
• N#C[C@H](c1ccccc1)N1CCCN([C@@H](C#N)c2ccccc2)C1c1ccccc1O (stereo partly specified) = active
• CN1c2ccccc2C(C)(C)C12C=Nc1c(cc(N3CCOCC3)c3ccccc13)O2 (stereo unspecified) = active
• C=Cc1c(C)c2cc3nc(cc4[nH]c(cc5nc(cc1[nH]2)C(C)=C5CCC(=O)O)c(CCC(=O)OC)c4C)[C@@]1(C)C3=CC=C(C(=O)OC)[C@H]1C(=O)OC (tested in a mixture with another compound) = active
• COc1ccccc1N1CCN(CCCCNC(=O)c2ccc3ccccc3c2)CC1 = inactive
• COCCn1c(=O)c(-c2cn(C)c3ccccc23)nc2cnc(Oc3ccccc3)nc21 = inactive
• Cc1nn(CCc2n[nH]c(=S)n2-c2ccc(F)c(Cl)c2)c(C)c1[N+](=O)[O-] = inactive
• COC(=O)C1=C(C)Nc2ncnn2C1c1cccnc1 (stereo unspecified) = inactive
• Cc1ccc(OC(=O)c2cccc(C(=O)Oc3ccc(C)cc3)n2)cc1 = inactive
• O=C(CSCc1cccc(Br)c1)N/N=C/c1ccc2c(c1)OCO2 = active
• Cc1ccc(-n2c(C)nnc2SCC(=O)N2CCc3ccccc3C2)cc1C = inactive
• COCCn1c(=O)c(-c2ccccc2)nc2cnc(Oc3ccc(OC)cc3)nc21 = active
• CN(CCCNC(=O)c1cccn2c(=O)c3ccccc3nc12)Cc1ccccc1 = active
